tested-system: T1, IL-2Rβ (UniProt P14784 27-240, limits assumed, biotinylated (site not stated))
T1 construct: also called CD122; IL-2Rbeta
T1 sequence (looked up): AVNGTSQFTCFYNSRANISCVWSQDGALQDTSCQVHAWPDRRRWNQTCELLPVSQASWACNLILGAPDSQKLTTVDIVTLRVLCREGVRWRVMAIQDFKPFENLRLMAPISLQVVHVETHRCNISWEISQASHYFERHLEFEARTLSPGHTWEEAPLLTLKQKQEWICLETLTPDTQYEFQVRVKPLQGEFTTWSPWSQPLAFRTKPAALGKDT
experiment: SPR Biacore T100, kinetic fit; biotinylated IL-2Rβ on chip
The following binders are shown together with reported koff values.
Please reply with the bare figure in s⁻¹ and do not write the unit itself.

See these solved cases before continuing.
## Task koff for in silico designed IL-2 variant SEQ ID NO: 5, MSA fusion protein (ligand, not shown: large carriers; small tags and cut ends) APTSSSTKKTQLQLEHLLLDLQMILNMLNNYDNPKLTRLLTFKFYMPKKATSLKHLQCLEEELKPLEEALNDAGDDPKTIRDLISNINVIVLELKGSETTFMCEYADETATIIEFLNRWITFCQSIISTLT ?
## Result 0.047

## Task koff for in silico designed IL-2 variant SEQ ID NO: 14, MSA fusion protein (ligand, not shown: large carriers; small tags and cut ends) APTSSSTKKTQLQLEHLLLDLQMILNMLNNYDNPKLTRMLTFKFYMPKKATELKHLQCLEEELKPLEEALNLAQSKNFHLDPRDLISNINVIVLELKGSETTFMCEYADETATIIEFLNRWITFCQSIISTLT ?
## Result 0.072

Now look at this one.
## Task koff for in silico designed IL-2 variant SEQ ID NO: 11, MSA fusion protein (ligand, not shown: large carriers; small tags and cut ends) APTSSSTKKTQLQLEHLLLDLQMILNMLNNYSNPKLTRLLTFKFYMPKKATSLKHLQCLEEELKPLEEALNLASDDQDKVRDVVSNINVFVLELKGSETTFMCEYADETATIIEFLNRWITFCQSIISTLT ?
## Result 0.0036
